# tested-system: human NPY Y5 receptor subtype (Homo sapiens, UniProt Q15761)
# Sequence (Q15761 whole entry): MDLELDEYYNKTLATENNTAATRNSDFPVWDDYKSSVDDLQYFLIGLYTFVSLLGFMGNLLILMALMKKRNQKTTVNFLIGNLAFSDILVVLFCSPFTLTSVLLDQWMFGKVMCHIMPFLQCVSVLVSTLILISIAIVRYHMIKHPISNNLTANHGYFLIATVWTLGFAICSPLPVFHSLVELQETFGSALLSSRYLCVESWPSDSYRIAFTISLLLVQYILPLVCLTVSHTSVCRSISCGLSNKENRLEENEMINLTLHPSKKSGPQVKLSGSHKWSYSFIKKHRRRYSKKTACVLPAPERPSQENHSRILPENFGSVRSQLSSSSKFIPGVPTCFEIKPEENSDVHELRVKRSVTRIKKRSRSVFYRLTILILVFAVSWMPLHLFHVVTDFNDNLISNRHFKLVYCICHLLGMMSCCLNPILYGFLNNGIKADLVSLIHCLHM
# experiment: NPY Y5 receptor membrane binding, [125I]PYY (human)
# experimental-setup: membrane protein; 75-100 pM [125I]PYY; 50% inhibition of specific binding; read-out: IC50 (µM) NPY receptor indicated hY5
readout: IC50 (µM)

Please review the following examples before continuing.
[[record]]
molecule = "Cc1ccc(S(=O)(=O)CC(C(=O)c2nc3ccccc3s2)c2ccccc2)cc1 (stereo not shown)"
result = 8.8

[[record]]
molecule = "O=C(c1nc2ccccc2[nH]1)C(CS(=O)(=O)c1ccccc1)c1ccccc1 (stereo not shown)"
result = 0.022


[A] Cc1ccc(S(=O)(=O)CC(C(=O)c2nc3ccccc3[nH]2)c2ccc(F)cc2)cc1 (stereo not shown)
[B] Cc1ccc(S(=O)(=O)CC(C(=O)c2nc3cc(C)c(C)cc3[nH]2)c2ccccc2)cc1 (stereo not shown)
Q: Parameter check: reported IC50 is higher for which label, A or B ? Answer with the label corresponding to your selection.
A: B
(B: 0.06 µM, A: 0.015 µM)

Reference source: patent EP1007514B1
